# Assayed Target: HLA-A*32:01
# Procedure Text: IEDB peptide-MHC binding, purified MHC/competitive/radioactivity; filed as Kd, often an IC50 or EC50 that approximates it; bounds were set here for any values at or beyond the usual limits of such assays
# Test Settings: source organism: Dengue virus 1 Brazil/97-11/1997
Readout Name: Kd (µM)
Report the figure in µM without appending any unit label.

For the sequence TNEVHTWTEQ , give its reported Kd.
5.36

###

# Assayed Target: HLA-A*68:02
# Procedure Text: IEDB peptide-MHC binding, purified MHC/competitive/fluorescence; filed as Kd, often an IC50 or EC50 that approximates it; bounds were set here for any values at or beyond the usual limits of such assays
# Test Settings: source organism: Mycobacterium tuberculosis C
Readout Name: Kd (nM)
Report the figure in nM without appending any unit label.

For the sequence AVFPRYHPR , give its reported Kd.
1910

###

# Assayed Target: HLA-B*15:01
# Procedure Text: IEDB peptide-MHC binding, purified MHC/direct/fluorescence; filed as Kd, often an IC50 or EC50 that approximates it; bounds were set here for any values at or beyond the usual limits of such assays
# Test Settings: source organism: Influenza A virus (A/duck/Mongolia/47/2001(H7N1))
Readout Name: Kd

For the sequence THFQRKRRV , give its reported Kd.
≥ 20 µM

###

# Assayed Target: HLA-A*02:01
# Procedure Text: IEDB peptide-MHC binding, purified MHC/competitive/fluorescence; filed as Kd, often an IC50 or EC50 that approximates it; bounds were set here for any values at or beyond the usual limits of such assays
# Test Settings: source organism: Yersinia mollaretii ATCC 43969
Readout Name: Kd

For the sequence MMWIPGWFG , give its reported Kd.
≥ 20 µM

###

# Assayed Target: HLA-A*02:06
# Procedure Text: IEDB peptide-MHC binding, purified MHC/competitive/radioactivity; filed as Kd, often an IC50 or EC50 that approximates it; bounds were set here for any values at or beyond the usual limits of such assays
# Test Settings: source organism: Homo sapiens
pKd: −log10 of the molar value.
Readout Name: pKd

For the sequence ELNDRLAVYI , give its reported pKd.
≤ 4.52

For the sequence ELNGKNIEDV , give its reported pKd.
≤ 4.16

For the sequence DMKKKMEDSV , give its reported pKd.
≤ 4.14

For the sequence QLADETLLKV , give its reported pKd.
7.21

###

# Assayed Target: HLA-B*27:03
# Procedure Text: IEDB peptide-MHC binding, purified MHC/competitive/fluorescence; filed as Kd, often an IC50 or EC50 that approximates it; bounds were set here for any values at or beyond the usual limits of such assays
# Test Settings: source organism: Orthohantavirus puumalaense
pKd: −log10 of the molar value.
Readout Name: pKd

For the sequence SSLRYGNVL , give its reported pKd.
≤ 4.70

###

# Assayed Target: HLA-A*02:01
# Procedure Text: IEDB peptide-MHC binding, purified MHC/direct/fluorescence; filed as Kd, often an IC50 or EC50 that approximates it; bounds were set here for any values at or beyond the usual limits of such assays
# Test Settings: source organism: Cryptosporidium parvum
pKd: −log10 of the molar value.
Readout Name: pKd

For the sequence KHNSAESAK , give its reported pKd.
≤ 4.70

###

# Assayed Target: HLA-B*15:01
# Procedure Text: IEDB peptide-MHC binding, purified MHC/competitive/fluorescence; filed as Kd, often an IC50 or EC50 that approximates it; bounds were set here for any values at or beyond the usual limits of such assays
# Test Settings: source organism: Reston ebolavirus
Readout Name: Kd

For the sequence ALYEENALK , give its reported Kd.
≥ 20 µM

###

Answer each item with its documented Kd.
# Assayed Target: HLA-B*15:01
# Procedure Text: IEDB peptide-MHC binding, purified MHC/direct/fluorescence; filed as Kd, often an IC50 or EC50 that approximates it; bounds were set here for any values at or beyond the usual limits of such assays
# Test Settings: source organism: SARS-CoV1
Report the figure in µM without appending any unit label.

For the sequence SLAIDAYPL , give its reported Kd.
1.08

For the sequence VQTVRTQVY , give its reported Kd.
0.144

###

# Assayed Target: HLA-A*33:01
# Procedure Text: IEDB peptide-MHC binding, purified MHC/competitive/radioactivity; filed as Kd, often an IC50 or EC50 that approximates it; bounds were set here for any values at or beyond the usual limits of such assays
# Test Settings: source organism: Dengue virus 3 Martinique/1243/1999
Readout Name: Kd

For the sequence EITHHAVSR , give its reported Kd.
0.0898 µM

For the sequence SAKLQWFVER , give its reported Kd.
0.083 µM

For the sequence PFLALGFFLR , give its reported Kd.
0.286 µM

###

# Assayed Target: HLA-B*53:01
# Procedure Text: IEDB peptide-MHC binding, purified MHC/competitive/radioactivity; filed as Kd, often an IC50 or EC50 that approximates it; bounds were set here for any values at or beyond the usual limits of such assays
# Test Settings: source organism: Vaccinia virus WR
Readout Name: pKd
The quantity pKd is defined as the negative base-10 logarithm of the molar concentration.

For the sequence EPSGNNYHI , give its reported pKd.
7.69

For the sequence LPNVQFVDI , give its reported pKd.
7.19

For the sequence IPEISSNDNA , give its reported pKd.
5.62

###

# Assayed Target: HLA-A*11:01
# Procedure Text: IEDB peptide-MHC binding, purified MHC/competitive/radioactivity; filed as Kd, often an IC50 or EC50 that approximates it; bounds were set here for any values at or beyond the usual limits of such assays
# Test Settings: source organism: Mammarenavirus brazilense
Readout Name: Kd (nM)
Report the figure in nM without appending any unit label.

For the sequence KSSQRDTILK , give its reported Kd.
33.2

###

# Assayed Target: HLA-A*01:01
# Procedure Text: IEDB peptide-MHC binding, purified MHC/competitive/fluorescence; filed as Kd, often an IC50 or EC50 that approximates it; bounds were set here for any values at or beyond the usual limits of such assays
# Test Settings: source organism: Escherichia coli O157:H7 str. Sakai
Readout Name: Kd (µM)
Report the figure in µM without appending any unit label.

For the sequence GSQYVSLAY , give its reported Kd.
0.0321

###

# Assayed Target: HLA-B*15:03
# Procedure Text: IEDB peptide-MHC binding, purified MHC/competitive/radioactivity; filed as Kd, often an IC50 or EC50 that approximates it; bounds were set here for any values at or beyond the usual limits of such assays
# Test Settings: source organism: Vaccinia virus WR
Readout Name: Kd (nM)
Report the figure in nM without appending any unit label.

For the sequence ISESRFQSL , give its reported Kd.
147

For the sequence LLKDRNELF , give its reported Kd.
15.7

For the sequence MVKNNKIQK , give its reported Kd.
9550

For the sequence METMFFIRF , give its reported Kd.
52.6

For the sequence TMKERRPIL , give its reported Kd.
397

For the sequence YQSLSPPPF , give its reported Kd.
0.0611

For the sequence FKVTTRRSI , give its reported Kd.
4.57

For the sequence SLNECIISF , give its reported Kd.
66.9

For the sequence WSIYLSLHY , give its reported Kd.
8.85

For the sequence QIVAYFSEF , give its reported Kd.
7.85

For the sequence FISRNKNIF , give its reported Kd.
4030

For the sequence KMAVEVGSI , give its reported Kd.
335

For the sequence VLFEVFVVF , give its reported Kd.
4.85

###

# Assayed Target: HLA-B*27:05
# Procedure Text: IEDB peptide-MHC binding, purified MHC/direct/fluorescence; filed as Kd, often an IC50 or EC50 that approximates it; bounds were set here for any values at or beyond the usual limits of such assays
# Test Settings: source organism: Influenza A virus (A/duck/Mongolia/47/2001(H7N1))
Readout Name: Kd

For the sequence THFQRKRRV , give its reported Kd.
≥ 20 µM

###

# Assayed Target: HLA-B*18:01
# Procedure Text: IEDB peptide-MHC binding, purified MHC/direct/fluorescence; filed as Kd, often an IC50 or EC50 that approximates it; bounds were set here for any values at or beyond the usual limits of such assays
# Test Settings: source organism: Giardia lamblia ATCC 50803
Readout Name: Kd (µM)
Report the figure in µM without appending any unit label.

For the sequence LPVFATIGL , give its reported Kd.
3.1

###

# Assayed Target: HLA-A*02:12
# Procedure Text: IEDB peptide-MHC binding, purified MHC/direct/fluorescence; filed as Kd, often an IC50 or EC50 that approximates it; bounds were set here for any values at or beyond the usual limits of such assays
# Test Settings: source organism: Brucella ovis ATCC 25840
Readout Name: Kd (nM)
Report the figure in nM without appending any unit label.

For the sequence CTDPPLLSV , give its reported Kd.
529

###

# Assayed Target: HLA-B*27:20
# Procedure Text: IEDB peptide-MHC binding, purified MHC/competitive/fluorescence; filed as Kd, often an IC50 or EC50 that approximates it; bounds were set here for any values at or beyond the usual limits of such assays
# Test Settings: source organism: Clostridium novyi NT
Readout Name: pKd
The quantity pKd is defined as the negative base-10 logarithm of the molar concentration.

Fill in pKd for ASMDNTSPM tested with HLA-B*27:20.
6.62
